# Tested on: EKVX NSCLC
# Assay Procedure: NCI tumour cell line growth inhibition, 48 h
Metric: TGI

N#CCc1nnc(N)o1	> 100 µM
O=C(CSSCC(=O)OCCS(=O)(=O)Nc1ccc(Br)cc1)OCCS(=O)(=O)Nc1ccc(Br)cc1	> 100 µM
Oc1ccccc1/C=N\NC(=S)N/N=C/c1ccccc1O	24.3 µM
NC(=O)Cn1c(=O)oc2cc(C(=O)CN3CCOCC3)ccc21	> 100 µM
O=C(CC1(O)C(=O)Nc2c(Cl)cc(Cl)cc21)c1ccc(F)cc1 (stereo not given)	> 100 µM
COc1cc(C2C(=O)C(Cl)N2Nc2nc(C)cc(=O)[nH]2)cc(OC)c1OC (stereo not given)	> 100 µM
CC(C)(C)n1c(=O)n2n(c1=O)C1c3cccc4cccc(c34)C2C2c3cccc4cccc(c34)C1n1c(=O)n(C(C)(C)C)c(=O)n12	> 100 µM
CN1CC2=C(NC(=S)NC2c2ccccc2Cl)/C(=C/c2ccccc2Cl)C1 (stereo not given)	> 100 µM
O=C1[C@@H](O)[C@@H]2CCCC[C@@]23CCCN13	> 100 µM
CCOC(=O)C1SC(=Nc2ccc(Cl)cc2Cl)N=C1C (stereo not given)	> 100 µM
O=c1[nH]c(=O)n(CCOc2ccc(Cl)cc2)cc1Nc1ccccc1	> 100 µM
O=S(=O)(O)c1ccc2c(N=Nc3ccccc3)c(O)ccc2c1	> 100 µM
O=C1c2cc(F)ccc2-c2c1c1ccc([N+](=O)[O-])cc1c(=O)n2CCCBr	> 100 µM
CC1=N[C@@](C)(C2CC3C=CC2C3=O)COC1=O (stereo not given in full)	> 100 µM
CC(=O)NC1COC(COC(=O)CCCCCCCCCCNC(=O)c2ccc([N+](=O)[O-])c3c(=O)c4ccccc4[nH]c23)C(O)C1OC(C)C(=O)NC(C(=O)NC(CCC(N)=O)C(=O)OCc1ccccc1)C(C)C (stereo not given)	27.8 µM
CN1CCN(CCCN2c3ccccc3Sc3ccc(Cl)cc32)CC1	12.4 µM
Cc1cccc(Cl)c1NC(=O)c1cnc(Nc2cc(N3CCOCC3)cc(S(C)(=O)=O)c2)s1	> 10 µM
CCOC(=O)N/N=C(\CC)OCC	> 100 µM
COc1cc2nc3cc([N+](=O)[O-])ccc3c(NCCNCC(C)O)c2cc1OC (stereo not given)	5.34 µM
C=C1CC2C3C=C(C)C4=CC(=O)CC[C@]4(C)C3CC[C@]2(C)[C@@]1(OC(C)=O)C(C)=O (stereo not given in full)	> 100 µM
